systemTested: hKv7.2 and hKv7.3 (Kv7.2/7.3) (Homo sapiens, UniProt O43525+O43526)
protocol: Modulation of Kv7.2/7.3 conductance, automated electrophysiology (IonWorks Barracuda, population patch clamp) in HEK293 cells
conditionsUsed: 4-parameter logistic fit of voltage shift data; read-out: EC50 (potency of V0.5 shift)
# pEC50 annotations
A value of pEC50 is the negative decimal logarithm of a concentration given in moles per litre.

Below, 2 compounds whose answers are already recorded.
compound=CC(C)(C)[C@H](O)CNC(=O)NCc1ccnc(OCC(F)(F)F)c1 measuredendpoint=pEC50 reported=5.70
compound=O=C(NCCC1(C(F)(F)F)CC1)NCc1ccnc(OCC(F)(F)F)c1 measuredendpoint=pEC50 reported=7.00

# next compound below
Prompt: Retrieve pEC50 measured for O=C(NCc1ccnc(OCC(F)(F)F)c1)NCC(O)C1(C(F)(F)F)CC1 (single isomer, unassigned) and print it.
Completion: 5.96
